Each entry below lists one item and its recorded growth inhibition value.
# Assay Overview: inhibition of 3D7 malaria parasite growth – strain 3D7 (AID 2306);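 further: 0% = DMSO wells and 100% = chloroquine plus artemisinin control wells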
# Measurement Setup: P. falciparum 3D7 erythrocytic growth, LDH absorbance, 72 h; at 2 µM; hits give high values
Calls of active or inactive are those of the source. How the calls were made is not given here.

Molecule	Quantity Kind	Result
Cc1noc(C)c1-c1cccc(CNCc2cccc(-c3cccc(-c4nc5ccc(F)cc5[nH]4)c3)c2)c1	growth inhibition	103% (active)
Nc1cccc(CNCc2cccc(-c3cccc(-c4nc5ccccc5[nH]4)c3)c2)c1	growth inhibition	101% (active)
Nc1ncc(-c2ccc(Cl)c(Cl)c2)c(N)n1	growth inhibition	94% (active)

INPUT: Find the recorded growth inhibition belonging to Cc1ccc(-c2cnc(N)c3cc(-c4ccnc(N)n4)ccc23)cc1 and report it.
OUTPUT: 99% (active)

* * *

# Assay Overview: HepG2 cytotoxicity, primary screen, cytotoxicity control for P. falciparum antimalarial project, cell-based, ATP luminescence (AID 2303);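 further: 0% = DMSO wells and 100% = digitonin-killed cells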
# Measurement Setup: HepG2 viability, 24-48 h, at 10 µM, hits give high values
Each entry below lists one item and its recorded inhibition value.
Kindly answer with a numeric value in %, unit omitted.

O=C(CNCC1CCCCC1)Nc1cc(C(F)(F)F)ccc1Cl 1
CC(C)(C)c1ccc(-c2csc(NC(=O)CC(c3ccccc3)c3ccccc3)n2)cc1 3
CCC/C=C/c1c(CNCCCNc2cc(=O)c3ccccc3[nH]2)sc(CC)c1Br 8
O=C(/C=C/c1ccc(Cl)c(Cl)c1)NCCCCCN1CCC(NC(=O)Nc2cccc(Cl)c2Cl)CC1 99

Continue with the molecule presented below.
INPUT: Find the recorded inhibition belonging to CCN(CCS(C)(=O)=O)Cc1ccc(-c2ccc3ncnc(Nc4ccc(OCc5cccc(F)c5)c(Cl)c4)c3c2)o1 and report it.
OUTPUT: 5

* * *

# Target System: Calcium-dependent protein kinase 1 (Plasmodium falciparum (isolate 3D7)) (UniProt P62344)
# Sequence (P62344 whole entry, looked up): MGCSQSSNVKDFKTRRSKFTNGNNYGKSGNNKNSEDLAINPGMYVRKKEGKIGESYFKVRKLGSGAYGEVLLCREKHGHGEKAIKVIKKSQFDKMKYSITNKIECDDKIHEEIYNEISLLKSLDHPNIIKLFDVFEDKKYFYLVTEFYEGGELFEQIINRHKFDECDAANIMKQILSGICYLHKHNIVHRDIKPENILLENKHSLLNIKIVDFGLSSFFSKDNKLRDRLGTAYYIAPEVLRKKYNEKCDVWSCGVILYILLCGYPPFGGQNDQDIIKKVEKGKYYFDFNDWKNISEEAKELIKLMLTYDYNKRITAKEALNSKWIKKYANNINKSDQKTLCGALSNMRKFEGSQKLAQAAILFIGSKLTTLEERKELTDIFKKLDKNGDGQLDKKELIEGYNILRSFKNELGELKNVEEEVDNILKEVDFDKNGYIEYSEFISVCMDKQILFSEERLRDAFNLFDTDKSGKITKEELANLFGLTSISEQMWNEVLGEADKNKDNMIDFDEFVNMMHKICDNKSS
# Assay Overview: PfCDPK1 kinase inhibitors, biochemical, TCAMS library (AID 1159585);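 further: inhibitors leave more ATP so luminescence rises with inhibition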
# Measurement Setup: recombinant PfCDPK1, Kinase-Glo ATP depletion luminescence
Results with a measured potency or affinity are listed apart. Active and inactive are the calls of the source. Cut-off not given; nearly all actives show IC50 up to about 0.98 µM.
Quantity Kind: outcome

Molecule	Quantity Kind	Result
O=C(/C=C/c1ccc(Cl)c(Cl)c1)N1CCC(CN2CCC(Cc3nc4ccccc4[nH]3)CC2)CC1	outcome	inactive
CCCCCN1CCCC(NS(=O)(=O)c2ccc(C(=O)Nc3cccc(C(F)(F)F)c3)cc2)C1 (stereo not given)	outcome	inactive
CCCCCCCCn1c2c(c(=N)c3c1CCC3)CCC2	outcome	inactive
CCn1c(C)c(C)c2cc(C(=O)Nc3ccon3)ccc21	outcome	inactive
N#CCCN1CCN(Cc2cccc(-c3ccc(-c4nc5ccc(F)cc5[nH]4)cc3)c2)CC1	outcome	inactive

INPUT: Find the recorded outcome belonging to COc1ccc(-c2ccc(NC(=O)c3cccc(F)c3)cc2)cc1CN1CCCN(C)CC1 and report it.
OUTPUT: inactive

INPUT: Try this molecule next: c1ccn2c(-c3ncnc(NCc4ccc5c(c4)CCO5)n3)cnc2c1
OUTPUT: inactive

INPUT: Try this molecule next: COc1ccc2nccc([C@@H](O)CN3CCC(NCCOc4ccncc4)CC3)c2c1
OUTPUT: inactive

INPUT: Try this molecule next: CCC(=O)Nc1ccc(Nc2nc(C)cc(N3CCCC3)n2)cc1
OUTPUT: inactive

INPUT: Try this molecule next: CCCNCc1ccc(-c2ccc(CN(CCOC)C(=O)CCCOCc3ccccc3)cc2)nc1
OUTPUT: inactive
